Origin of values: patent US12662489B2

molecular target: MTHFD2 recombinant human enzyme (Homo sapiens); experiment: MTHFD2 inhibition assay (NAD(P)H-Glo luminescence)
Sequence (P13995 36-350): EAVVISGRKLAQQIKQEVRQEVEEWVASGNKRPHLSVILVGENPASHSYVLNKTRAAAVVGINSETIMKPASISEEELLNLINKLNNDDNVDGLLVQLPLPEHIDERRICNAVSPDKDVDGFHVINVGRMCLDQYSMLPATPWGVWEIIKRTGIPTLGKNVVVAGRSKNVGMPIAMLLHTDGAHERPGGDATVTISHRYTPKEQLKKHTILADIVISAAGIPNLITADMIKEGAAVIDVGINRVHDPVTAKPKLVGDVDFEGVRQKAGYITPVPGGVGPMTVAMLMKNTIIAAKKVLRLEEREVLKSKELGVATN
Property: IC50; scope: individual molecules

Consider the reported IC50 for these molecules:
INSERT INTO assay_data (molecule, result) VALUES
  ('COC[C@H]1CN(c2ccc3c4c(c(=O)oc3c2C)CN(C(=O)c2ccc(C(=O)NS(=O)(=O)N(C)C)c(O[C@@H]3C[C@@H]5C[C@@H]5C3)c2F)CC4)CCN1C [Example 13]', '1 to 10 nM'),
  ('COC[C@H]1CN(c2ccc3c4c(c(=O)oc3c2Cl)CN(C(=O)c2ccc(C(=O)NS(=O)(=O)N(C)C(C)C)c(O[C@@H]3C[C@@H]5C[C@@H]5C3)c2F)CC4)CCN1C [Example 65]', '10 to 100 nM');

For this molecule ( COC[C@H]1CN(c2cc(C)c3c4c(c(=O)oc3c2C)CN(C(=O)c2ccc(C(=O)NS(=O)(=O)N(C)C)c(N3CCC(F)(F)C3)c2)CC4)CCN1C [Example 82] ), measured IC50 is 1 to 10 nM
